target under test: VIM-2 (Escherichia coli, UniProt Q5U7L7)
experiment: biochemical
test conditions: CCF2-FA fluorescence assay; read-out: VIM2 IC50
Counter-ions that a name gives are not always drawn.
Property: IC50; scope: individual molecules
measurement name: IC50 (nM)

• NC[C@@H](O)CNS(=O)(=O)c1ccc(N2CCC(F)(CN)CC2)c(-c2nn[nH]n2)c1S(N)(=O)=O = 3.68
• NS(=O)(=O)c1c(S(=O)(=O)N[C@@H]2CCNC2)ccc(N2CC(N3CCCCC3)C2)c1-c1nnn[nH]1 = 16.6
• NCCC1CN(c2ccc(S(=O)(=O)NC[C@H](O)CN)c(S(N)(=O)=O)c2-c2nn[nH]n2)C1 = 200
• CN1CCN(c2ccc(S(=O)(=O)N[C@@H]3CCNC3)c(S(N)(=O)=O)c2-c2nnn[nH]2)CC1=O = 1
• NC[C@@H](O)CNS(=O)(=O)c1ccc(N2CC[C@@H](N)[C@@H](F)C2)c(-c2nn[nH]n2)c1S(N)(=O)=O (single isomer, unassigned) [Example 1] = 3.58
• NC[C@@H](O)CNS(=O)(=O)c1ccc(N2CC[C@@H](CN)[C@@H](F)C2)c(-c2nn[nH]n2)c1S(N)(=O)=O (racemic) = 4.19
• NC[C@H](N)CNS(=O)(=O)c1ccc(N2CCC(CO)CC2)c(-c2nnn[nH]2)c1S(N)(=O)=O = 0.63
• NC(=O)[C@H]1CN(c2ccc(S(=O)(=O)N[C@@H]3CCNC3)c(S(N)(=O)=O)c2-c2nn[nH]n2)CCN1 = 1.89
• CN(C)C1(C)CN(c2ccc(S(=O)(=O)N[C@@H]3CCNC3)c(S(N)(=O)=O)c2-c2nnn[nH]2)C1 = 4.27
• NC1CCN(c2ccc(S(=O)(=O)N[C@@H]3CCNC3)c(S(N)(=O)=O)c2-c2nnn[nH]2)CC1 = 16.1
• N[C@H]1CCN(c2ccc(S(=O)(=O)N[C@@H]3CCNC3)c(S(N)(=O)=O)c2-c2nn[nH]n2)C[C@H]1F = 4.27
• NS(=O)(=O)c1c(S(=O)(=O)N[C@@H]2CCNC2)ccc(N2CCC(C(F)F)CC2)c1-c1nnn[nH]1 = 1.02
• NS(=O)(=O)c1c(S(=O)(=O)N[C@@H]2CCNC2)ccc(N2CCC3(CC2)CNC3)c1-c1nnn[nH]1 = 8.18
• NC[C@@H](O)CNS(=O)(=O)c1ccc(N2CC[C@@H](N)[C@@H](F)C2)c(-c2nn[nH]n2)c1S(N)(=O)=O [Example 207] = 25.6
• NS(=O)(=O)c1c(S(=O)(=O)N[C@@H]2CCNC2)ccc(N2CCCC(C(=O)NCCCO)C2)c1-c1nnn[nH]1 (stereo partly drawn) = 1.77
• NC[C@@H]1CCN(c2ccc(S(=O)(=O)N[C@@H]3CCNC3)c(S(N)(=O)=O)c2-c2nn[nH]n2)C[C@@H]1F (racemic) = 4.46
• NS(=O)(=O)c1c(S(=O)(=O)N[C@@H]2CCNC2)ccc(N2CCOC(CCO)C2)c1-c1nnn[nH]1 (stereo partly drawn) = 1.79
• NC[C@@H](O)CNS(=O)(=O)c1ccc(N2CCC(c3ncc[nH]3)CC2)c(-c2nn[nH]n2)c1S(N)(=O)=O = 0.64
• NC[C@@H](O)CNS(=O)(=O)c1ccc(N2CCC[C@@H](NCCO)C2)c(-c2nn[nH]n2)c1S(N)(=O)=O [Example 130, trifluoroacetate] = 5.47
• NS(=O)(=O)c1c(S(=O)(=O)N[C@@H]2CCNC2)ccc(NCCN2CCOCC2)c1-c1nnn[nH]1 = 8.19
• NC[C@H](N)CNS(=O)(=O)c1ccc(N2CCN(CCO)CC2)c(-c2nnn[nH]2)c1S(N)(=O)=O = 20.2
• NCC1CCN(c2ccc(S(=O)(=O)N[C@@H](CN)CO)c(S(N)(=O)=O)c2-c2nn[nH]n2)CC1 = 2.31
• NS(=O)(=O)c1c(S(=O)(=O)C2CNC2)ccc(N2CC3C(CO)C3C2)c1-c1nnn[nH]1 (stereo not drawn) = 10.5
• NCCOC1CCN(c2ccc(S(=O)(=O)NC[C@H](O)CN)c(S(N)(=O)=O)c2-c2nn[nH]n2)CC1 = 3.32
• NCCC1CCCN(c2ccc(S(=O)(=O)NC[C@H](O)CN)c(S(N)(=O)=O)c2-c2nn[nH]n2)CC1 (stereo partly drawn) [Example 140, trifluoroacetate] = 1.87
• NCC1(O)CCN(c2ccc(S(=O)(=O)N[C@@H]3CCNC3)c(S(N)(=O)=O)c2-c2nnn[nH]2)CC1 = 23.7
• NC[C@@H](O)CNS(=O)(=O)c1ccc(N2CCN3CCOCC3C2)c(-c2nn[nH]n2)c1S(N)(=O)=O (stereo partly drawn) [Example 129, 2,2,2-trifluoroacetate] = 6.44

Source listed as patent US11207312B2.
